- run_description: Half life at steady state in human at 2 to 50 mg administered once daily
- Assay type: ADME
- condition_summary: in vivo, read-out: t1/2ss
assay_metric: half-life

Problem: Requested read-out: half-life. Entry: Nc1cncc(-c2cn3ccnc3c(Nc3ccc(N4CCN(C5COC5)CC4)cc3)n2)n1 [LANRAPLENIB]
Result: 21.3 to 24.6 h

---

- run_description: Solubility of compound at pH 7.4
- Format: physicochemical
- condition_summary: buffer
assay_metric: solubility (µM)
Record the value in µM, omitting the unit from your answer.

{"smiles_entry": "c1cn2cc(-c3cnc4cn[nH]c4c3)nc(Nc3ccc(N4CCN(C5COC5)CC4)cc3)c2n1", "assay_metric": "solubility", "reported_value": 1}
{"smiles_entry": "c1cn2cc(-c3ccc4cn[nH]c4c3)nc(Nc3ccc(N4CC5CC(C4)O5)cc3)c2n1", "assay_metric": "solubility", "reported_value": 2}
{"smiles_entry": "O=S1(=O)CCN(c2ccc(Nc3nc(-c4ccc5cn[nH]c5c4)cn4ccnc34)cc2)CC1", "assay_metric": "solubility", "reported_value": 3}
{"smiles_entry": "c1cn2cc(-c3ccc4nc[nH]c4c3)nc(Nc3ccc(N4CCN(C5COC5)CC4)cc3)c2n1", "assay_metric": "solubility", "reported_value": 49}
{"smiles_entry": "CN(C)C[C@@H]1CN(c2ccc(Nc3nc(-c4ccc5cn[nH]c5c4)cn4ccnc34)cc2)CCO1", "assay_metric": "solubility", "reported_value": 78}

Problem: Requested read-out: solubility. Entry: "c1cn2cc(-c3ccc4cn[nH]c4c3)nc(Nc3ccc(N4CC5(CCOCC5)C4)cc3)c2n1"
Result: 3

Problem: Requested read-out: solubility. Entry: "Nc1cccc(-c2cn3ccnc3c(Nc3ccc(N4CCN(C5COC5)CC4)cc3)n2)c1"
Result: 84

---

- measured_target: Tyrosine-protein kinase SYK (Homo sapiens)
Assign labels as follows, please: yes (1) for IC50 below 8 nM; no (0) for IC50 equal to or exceeding 8 nM.

Observe how each entry below is paired with its result.
{"smiles_entry": "c1cn2cc(-c3cnc4cc[nH]c4n3)nc(Nc3ccc(N4CCN(C5COC5)CC4)cc3)c2n1", "category": "yes (1)"}
{"smiles_entry": "c1cn2cc(-c3ccc4cn[nH]c4c3)nc(Nc3ccc(N4CCN(C5COC5)CC4)cc3)c2n1", "category": "no (0)"}
{"smiles_entry": "OC1CCN(c2ccc(Nc3nc(-c4ccc5cn[nH]c5c4)cn4ccnc34)cc2)CC1", "category": "yes (1)"}
{"smiles_entry": "c1cn2cc(-c3ccc4nc[nH]c4n3)nc(Nc3ccc(N4CCN(C5COC5)CC4)cc3)c2n1", "category": "no (0)"}
{"smiles_entry": "CN(C)C[C@@H]1CN(c2ccc(Nc3nc(-c4ccc5cn[nH]c5c4)cn4ccnc34)cc2)CCO1", "category": "yes (1)"}

# input for lookup
Problem: Input "C[C@@H]1CN(c2ccc(Nc3nc(-c4ccc5cn[nH]c5c4)cn4ccnc34)cc2)C[C@H](C)O1" ; condition: IC50 strictly below 8 nM. Does it hold?
Result: yes (1)

---

Examples of molecules with documented IC50 follow.
- measured_target: Tyrosine-protein kinase SYK (Homo sapiens, UniProt P43405)
- run_description: Inhibition of SYK (unknown origin) using XL665-labeled peptide as substrate in presence of ATP measured after 30 mins by TR-FRET assay
Record the value in nM, omitting the unit from your answer.

In the examples that follow, each entry is paired with its recorded IC50.
{"molecule": "c1cn2cc(-c3ccc4cc[nH]c4n3)nc(Nc3ccc(N4CCN(C5COC5)CC4)cc3)c2n1", "measured_target": "Tyrosine-protein kinase SYK (Homo sapiens, UniProt P43405)", "value_unit": "nM", "reported_value": 11.3}
{"molecule": "c1cn2cc(-c3ccc4c(c3)NCCO4)nc(Nc3ccc(N4CCN(C5COC5)CC4)cc3)c2n1", "measured_target": "Tyrosine-protein kinase SYK (Homo sapiens, UniProt P43405)", "value_unit": "nM", "reported_value": 21.5}

Problem: Requested read-out: IC50. Entry: "c1cn2cc(-c3ccc4cc[nH]c4c3)nc(Nc3ccc(N4CCN(C5COC5)CC4)cc3)c2n1"
Result: 15.7

Problem: Requested read-out: IC50. Entry: "c1cn2cc(-c3ccc4c(n3)NCCO4)nc(Nc3ccc(N4CCN(C5COC5)CC4)cc3)c2n1"
Result: 44.1

Problem: Requested read-out: IC50. Entry: "OC[C@H]1CN(c2ccc(Nc3nc(-c4ccc5cn[nH]c5c4)cn4ccnc34)cc2)CCO1"
Result: 1.1

Problem: Requested read-out: IC50. Entry: "c1cn2cc(-c3cnc4nc[nH]c4n3)nc(Nc3ccc(N4CCN(C5COC5)CC4)cc3)c2n1"
Result: 11.5

---

Examples of compounds with documented solubility follow.
- run_description: Solubility of compound at pH 7.4
- Type: physicochemical
- condition_summary: buffer
Record the value in µM, omitting the unit from your answer.

In the examples that follow, each entry is paired with its recorded solubility.
{"smiles_entry": "c1cn2cc(-c3ccc4c(n3)NCCO4)nc(Nc3ccc(N4CCN(C5COC5)CC4)cc3)c2n1", "value_unit": "µM", "solubility": 2}
{"smiles_entry": "OC[C@H]1CN(c2ccc(Nc3nc(-c4ccc5cn[nH]c5c4)cn4ccnc34)cc2)CCO1", "value_unit": "µM", "solubility": 1.2}
{"smiles_entry": "c1cn2cc(-c3ccc4cn[nH]c4c3)nc(Nc3ccc(N4CCOCC4)cc3)c2n1", "value_unit": "µM", "solubility": 6}
{"smiles_entry": "c1cn2cc(-c3cnc4c(n3)NCCO4)nc(Nc3ccc(N4CCN(C5COC5)CC4)cc3)c2n1", "value_unit": "µM", "solubility": 99}
{"smiles_entry": "c1cn2cc(-c3cnc4cc[nH]c4c3)nc(Nc3ccc(N4CCN(C5COC5)CC4)cc3)c2n1", "value_unit": "µM", "solubility": 1}

Here's the next entry for you.
Problem: Requested read-out: solubility. Entry: "Nc1cncc(-c2cn3ccnc3c(Nc3ccc(N4CCN(C5COC5)CC4)cc3)n2)c1"
Result: 87

---

- run_description: Solubility of compound at pH 7.4
- Format: physicochemical
- condition_summary: buffer
Would you mind labelling by solubility? At or over 5 µM is Fulfilled, under is Not fulfilled.

Observe how each entry below is paired with its result.
{"smiles_entry": "OC1CN(c2ccc(Nc3nc(-c4ccc5cn[nH]c5c4)cn4ccnc34)cc2)C1", "category": "Not fulfilled"}
{"smiles_entry": "c1cn2cc(-c3cnc4cn[nH]c4n3)nc(Nc3ccc(N4CCN(C5COC5)CC4)cc3)c2n1", "category": "Not fulfilled"}
{"smiles_entry": "OC1CCN(c2ccc(Nc3nc(-c4ccc5cn[nH]c5c4)cn4ccnc34)cc2)CC1", "category": "Not fulfilled"}

Problem: Could you please find out whether "c1cn2cc(-c3ccc4nc[nH]c4n3)nc(Nc3ccc(N4CCN(C5COC5)CC4)cc3)c2n1" has solubility that meets 5 µM or exceeds it?
Result: Fulfilled

Problem: Could you please find out whether "c1cn2cc(-c3cnc4nc[nH]c4c3)nc(Nc3ccc(N4CCN(C5COC5)CC4)cc3)c2n1" has solubility that meets 5 µM or exceeds it?
Result: Not fulfilled

Problem: Could you please find out whether "c1cn2cc(-c3ccc4cc[nH]c4c3)nc(Nc3ccc(N4CCN(C5COC5)CC4)cc3)c2n1" has solubility that meets 5 µM or exceeds it?
Result: Fulfilled

Problem: Could you please find out whether "Nc1cncc(-c2cn3ccnc3c(Nc3ccc(N4CCN(C5COC5)CC4)cc3)n2)n1" has solubility that meets 5 µM or exceeds it?
Result: Fulfilled

---

- run_description: Oral bioavailability in rat at 5 mg/kg
- Type: ADME, organism-based
- condition_summary: in vivo
Examples of compounds with documented bioavailability follow.
Record the value in %, omitting the unit from your answer.

{"compound": "c1cn2cc(-c3ccc4cn[nH]c4c3)nc(Nc3ccc(N4CCN(C5COC5)CC4)cc3)c2n1", "reported_value": 42}
{"compound": "c1cn2cc(-c3cnc4c(c3)NCCO4)nc(Nc3ccc(N4CCN(C5COC5)CC4)cc3)c2n1", "reported_value": 38}
{"compound": "Nc1cncc(-c2cn3ccnc3c(Nc3ccc(N4CCN(C5COC5)CC4)cc3)n2)n1 [LANRAPLENIB]", "reported_value": 60}
{"compound": "c1cn2cc(-c3cnc4c(n3)NCCO4)nc(Nc3ccc(N4CCN(C5COC5)CC4)cc3)c2n1", "reported_value": 21}

Here's the next entry for you.
Problem: Requested read-out: bioavailability. Entry: "CN(C)C[C@@H]1CN(c2ccc(Nc3nc(-c4ccc5cn[nH]c5c4)cn4ccnc34)cc2)CCO1"
Result: 2

---

- run_description: AUC in dog pretreated with pentagastrin
- Type: ADME, Canis lupus familiaris
- condition_summary: in vivo
assay_metric: AUC (µM·h)
Record the value in µM·h, omitting the unit from your answer.

Problem: Requested read-out: AUC. Entry: Nc1cncc(-c2cn3ccnc3c(Nc3ccc(N4CCN(C5COC5)CC4)cc3)n2)n1 [LANRAPLENIB]
Result: 8.8

The origin of these recorded values is ChEMBL document CHEMBL4602710.
